test: Cytotoxicity assay (CellTiter Glo) in NHDF cells; conditions: human, CC50, NHDF cells, maximum 40 μM
Binary label based on CC50 at 72 h with cut-off 20 µM: below gives True, not below gives False.

Would you kindly verify if CC50 at 72 h of COc1ccc(-n2c([C@@H]3CCCNC3)nc3cc(N4CCN(C(C)C)CC4)c(Cl)cc3c2=O)cc1 [(R)-1t] is strictly less than 20 µM?
False

Would you kindly verify if CC50 at 72 h of COc1c(F)cc(-n2c([C@H]3CCCN3)nc3cc(N4CCN(C(C)C)CC4)c(Cl)cc3c2=O)cc1F [(R)-1d] is strictly less than 20 µM?
True

Would you kindly verify if CC50 at 72 h of COc1c(F)cc(-n2c([C@@H]3CCCNC3)nc3cc(N4CCC(N5CCOCC5)CC4)c(Cl)cc3c2=O)cc1F [(R)-1o] is strictly less than 20 µM?
False

Would you kindly verify if CC50 at 72 h of COc1c(F)cc(-n2c([C@@H]3CCCN(c4ccccc4)C3)nc3cc(N4CCN(C(C)C)CC4)c(Cl)cc3c2=O)cc1F [(R)-1aa] is strictly less than 20 µM?
False

Would you kindly verify if CC50 at 72 h of COc1c(F)cc(-n2c([C@@H]3CCCNC3)nc3cc(N4CCN(c5ccccc5)CC4)c(Cl)cc3c2=O)cc1F [(R)-1k] is strictly less than 20 µM?
True

Would you kindly verify if CC50 at 72 h of COc1c(F)cc(-n2c([C@@H]3CCCNC3)nc3cc(N4CCNCC4)c(Cl)cc3c2=O)cc1F [(R)-1n] is strictly less than 20 µM?
True

Would you kindly verify if CC50 at 72 h of COc1c(F)cc(-n2c([C@H]3CCCCN3C)nc3cc(N4CCN(C(C)C)CC4)c(Cl)cc3c2=O)cc1F [(R)-1z] is strictly less than 20 µM?
False

Would you kindly verify if CC50 at 72 h of CC(C)N1CCN(c2cc3nc([C@@H]4CCCCN4)n(-c4ccc(Cl)cc4)c(=O)c3cc2Cl)CC1 [(S)-1x] is strictly less than 20 µM?
True

Would you kindly verify if CC50 at 72 h of CC(C)N1CCN(c2cc3nc([C@@H]4CCCNC4)n(C)c(=O)c3cc2Cl)CC1 [(R)-1r] is strictly less than 20 µM?
False

Would you kindly verify if CC50 at 72 h of COc1c(F)cc(-n2c([C@@H]3CCCCN3)nc3cc(N4CCN(C(C)C)CC4)c(Cl)cc3c2=O)cc1F [(S)-1h] is strictly less than 20 µM?
False

Would you kindly verify if CC50 at 72 h of COc1c(F)cc(-n2c([C@H]3CCCNC3)nc3cc(N4CCC(N5CCN(C)CC5)CC4)c(Cl)cc3c2=O)cc1F [(S)-1p] is strictly less than 20 µM?
True

---

Answer each item with its documented solubility kinetic at 24 h.
experiment: Kinetic solubility determination; conditions: pH 7.4, aqueous buffer, kinetic from dmso stock
Value expressed in µM; do not type the unit.

Item CC(C)N1CCN(c2cc3nc(C4CCCCN4)n(-c4ccc(Cl)cc4)c(=O)c3cc2Cl)CC1 (racemic) : provide solubility kinetic at 24 h
34.6

Item COc1c(F)cc(-n2c([C@H]3CCCCN3)nc3cc(N4CCN(C(C)C)CC4)c(Cl)cc3c2=O)cc1F [(R)-1h] : provide solubility kinetic at 24 h
183

---

experiment: Plasma protein binding (equilibrium dialysis); conditions: male, CD-1, mouse
Measured Property: fraction unbound at 4 h, 2 μM

Item COc1c(F)cc(-n2c([C@H]3CCCCN3)nc3cc(N4CCN(C(C)C)CC4)c(Cl)cc3c2=O)cc1F [(R)-1h] : provide fraction unbound at 4 h, 2 μM
0.232

Item CC(C)N1CCN(c2cc3nc(C4CCCCN4)n(-c4ccc(Cl)cc4)c(=O)c3cc2Cl)CC1 (racemic) [rac-1x] : provide fraction unbound at 4 h, 2 μM
0.033

---

experiment: physchem; details: pH 7.4
Measured Property: logD
Could you respond with only the numeric value?

Item CC(C)N1CCN(c2cc3nc(C4CCCCN4)n(-c4ccc(Cl)cc4)c(=O)c3cc2Cl)CC1 (racemic) : provide logD
2.3

---

Answer each item with its documented half-life.
test: Liver microsomal stability; conditions: CD-1, mouse, microsomes

Item CC(C)N1CCN(c2cc3nc(C4CCCCN4)n(-c4ccc(Cl)cc4)c(=O)c3cc2Cl)CC1 (racemic) [rac-1x] : provide half-life
> 145 min

Item COc1c(F)cc(-n2c([C@H]3CCCCN3)nc3cc(N4CCN(C(C)C)CC4)c(Cl)cc3c2=O)cc1F [(R)-1h] : provide half-life
> 145 min

---

tested on: NHDF cells; experiment: Cytotoxicity assay (CellTiter Glo) in NHDF cells; conditions: NHDF cells, 72 h; maximum 40 μM
Measured Property: CC50 (µM)
Value expressed in µM; do not type the unit.

Item COc1c(F)cc(-n2c([C@H]3CCCCN3)nc3cc(N4CCN(C(C)C)CC4)c(Cl)cc3c2=O)cc1F [(R)-1h] : provide CC50
18.6

---

Answer each item with its documented CC50 at 72 h.
assay: Cytotoxicity assay (CellTiter Glo) in NHDF cells; conditions: human, CC50, NHDF cells, maximum 40 μM
Value expressed in µM; do not type the unit.

Item CC(C)N1CCN(c2cc3nc([C@@H]4CCCNC4)n(-c4ccc(Cl)cc4)c(=O)c3cc2Cl)CC1 [(R)-1v] : provide CC50 at 72 h
14.2

Item COc1c(F)cc(-n2c([C@H]3CCCNC3)nc3cc(N4CCNCC4)c(Cl)cc3c2=O)cc1F [(S)-1n] : provide CC50 at 72 h
13.7

Item COc1c(F)cc(-n2c([C@H]3CCCNC3)nc3cc(N4CCC(N5CCOCC5)CC4)c(Cl)cc3c2=O)cc1F [(S)-1o] : provide CC50 at 72 h
30.1

Item CC(C)N1CCN(c2cc3nc([C@H]4CCCNC4)n(-c4cccc(Cl)c4)c(=O)c3cc2Cl)CC1 [(S)-1w] : provide CC50 at 72 h
14.8

Item COc1c(F)cc(-n2c([C@H]3CCCNC3)nc3cc(N4CCN(C(C)(C)C)CC4)c(Cl)cc3c2=O)cc1F [(S)-1j] : provide CC50 at 72 h
8.9

---

Answer each item with its documented CC50 at 72 h.
assay: Cytotoxicity assay (CellTiter Glo) in NHDF cells; conditions: human, CC50, NHDF cells, maximum 40 μM

Item COc1c(F)cc(-n2c([C@H]3CCCNC3)nc3cc(N(C)CCN(C)C)c(Cl)cc3c2=O)cc1F [(S)-1q] : provide CC50 at 72 h
16.3 µM

Item CC(C)N1CCN(c2cc3nc([C@H]4CCCNC4)n(-c4ccccc4)c(=O)c3cc2Cl)CC1 [(S)-1s] : provide CC50 at 72 h
> 40 µM

Item COc1c(F)cc(-n2c([C@H]3CCCNC3)nc3cc(N4CCN(C(C)C)CC4)c(Cl)cc3c2=O)cc1F [(S)-1g] : provide CC50 at 72 h
11.7 µM

Item COc1c(F)cc(-n2c([C@@H]3CCN3)nc3cc(N4CCN(C(C)C)CC4)c(Cl)cc3c2=O)cc1F [(S)-1f] : provide CC50 at 72 h
> 40 µM

---

assay: Cytotoxicity in Vero E6 cells (live cell count, high-content imaging); conditions: African green monkey
Measured Property: CC50 at 20 h

Item COc1c(F)cc(-n2c([C@H]3CCCCN3)nc3cc(N4CCN(C(C)C)CC4)c(Cl)cc3c2=O)cc1F [(R)-1h] : provide CC50 at 20 h
> 20 µM

---

Answer each item with its documented CC50 at 72 h.
assay: Cytotoxicity assay (CellTiter Glo) in NHDF cells; settings: human, CC50, NHDF cells, maximum 40 μM
Value expressed in µM; do not type the unit.

Item CC(C)N1CCN(c2cc3nc([C@@H]4CCCNC4)n(-c4ccc(F)cc4)c(=O)c3cc2Cl)CC1 [(R)-1u] : provide CC50 at 72 h
23.8

Item COc1c(F)cc(-n2c([C@H]3CCCNC3)nc3cc(N4CCN(C)CC4)c(Cl)cc3c2=O)cc1F [(S)-1m] : provide CC50 at 72 h
24.8

Item COc1c(F)cc(-n2c([C@H]3CCCN(C)C3)nc3cc(N4CCN(C(C)C)CC4)c(Cl)cc3c2=O)cc1F [(S)-1y] : provide CC50 at 72 h
29.1

Item COc1c(F)cc(-n2c([C@@H]3CCCN(C)C3)nc3cc(N4CCN(C(C)C)CC4)c(Cl)cc3c2=O)cc1F [(R)-1y] : provide CC50 at 72 h
23.6

Item COc1c(F)cc(-n2c([C@H]3CCCN3)nc3cc(N4CCNCC4)c(Cl)cc3c2=O)cc1F [(R)-1e] : provide CC50 at 72 h
24.9

Item COc1c(F)cc(-n2c([C@@H]3CCCNC3)nc3cc(N4CCN(C5CCN(C)CC5)CC4)c(Cl)cc3c2=O)cc1F [(R)-1l] : provide CC50 at 72 h
11.6

Item CC(C)N1CCN(c2cc3nc([C@H]4CCCNC4)n(-c4ccc(Cl)cc4)c(=O)c3cc2Cl)CC1 [(S)-1v] : provide CC50 at 72 h
17.2

Item COc1c(F)cc(-n2c([C@H]3CCCNC3)nc3cc(N4CCN(C5CCN(C)CC5)CC4)c(Cl)cc3c2=O)cc1F [(S)-1l] : provide CC50 at 72 h
11.4

Item COc1c(F)cc(-n2c([C@@H]3CCCNC3)nc3cc(N4CCC(N5CCN(C)CC5)CC4)c(Cl)cc3c2=O)cc1F [(R)-1p] : provide CC50 at 72 h
13.1

Item CC(C)N1CCN(c2cc3nc([C@H]4CCCCN4)n(-c4ccc(Cl)cc4)c(=O)c3cc2Cl)CC1 [(R)-1x] : provide CC50 at 72 h
12
